- EXPERIMENT SUMMARY: in vitro
- DETAILS: human, hela cells, % viability
MEASUREMENT NAME: viability at 28.5 h, 10 µM (%)
Return type: number; implicit unit %.

The following compounds have reported results that may help.
COMPOUND: Cc1cc2c(s1)c1cnn(CCN3CCCC3)c(=O)c1n2C
MEASUREMENT UNITS: %
viability at 28.5 h, 10 µM: 90
--
COMPOUND: CCCCN(C(C)=O)c1c(CC)nc2ccc(C(=O)NCc3ccccc3OC)cn12
MEASUREMENT UNITS: %
viability at 28.5 h, 10 µM: 96
--
COMPOUND: CN(c1cncc(Cl)n1)C1CCN(Cc2ccccc2)CC1 [CBK012767F]
MEASUREMENT UNITS: %
viability at 28.5 h, 10 µM: 77.7
--
COMPOUND: O=C(c1[nH]c2ccccc2c1NS(=O)(=O)Cc1ccccc1[N+](=O)[O-])N1CCOCC1
MEASUREMENT UNITS: %
viability at 28.5 h, 10 µM: 107
--
COMPOUND: O=C(CCc1ccccc1)N1CCC(c2cccc(Cc3cccc(F)c3)n2)CC1
MEASUREMENT UNITS: %
viability at 28.5 h, 10 µM: 97.5
--
COMPOUND: COc1ccc2c(ccn2S(=O)(=O)c2ccsc2C(=O)O)c1
MEASUREMENT UNITS: %
viability at 28.5 h, 10 µM: 102
--
COMPOUND: CC(C)(c1ccc(OC(=O)c2ccc(N)cc2)cc1)c1ccc(OC(=O)c2ccc(N)cc2)cc1
MEASUREMENT UNITS: %
viability at 28.5 h, 10 µM: 91.2
--
COMPOUND: COc1cccc(CN2CCCN(c3nccc(OCC4COc5ccccc5O4)n3)CC2)c1OC (stereo not drawn) [CBK115476T]
MEASUREMENT UNITS: %
viability at 28.5 h, 10 µM: 108
--
COMPOUND: CC(=O)NCC(=O)N1C[C@@H]2CCCCN(Cc3cccc(F)c3)[C@@H]2C1
MEASUREMENT UNITS: %
viability at 28.5 h, 10 µM: 90.1
--
COMPOUND: CCN(CC)C(=O)c1sccc1NS(=O)(=O)Cc1ccccc1[N+](=O)[O-]
MEASUREMENT UNITS: %
viability at 28.5 h, 10 µM: 97

Challenge: So what's the measured viability at 28.5 h, 10 µM for this one? COc1ccc(C(C)NC2CCN(c3ccccn3)CC2)cc1F (stereo not drawn)
Response given: 86.8

Challenge: So what's the measured viability at 28.5 h, 10 µM for this one? CCN(CC)CCN1CCN(c2cncc(-c3cccs3)n2)CC1
Response given: 95.5

Challenge: So what's the measured viability at 28.5 h, 10 µM for this one? O=C(NC1CC1)c1ccc(-c2cnc3[nH]c(=O)n(CC4CCOCC4)c3n2)cc1
Response given: 85.2

Challenge: So what's the measured viability at 28.5 h, 10 µM for this one? Nc1nc(COn2c(-c3ccccc3)nc3ccccc3c2=O)nc(-c2ccccc2O)n1
Response given: 98.6

Challenge: So what's the measured viability at 28.5 h, 10 µM for this one? COc1cccc(CNC(=O)c2cc3c(nc2N)CCN(Cc2cccc(C)c2OC)C3)c1
Response given: 98.6

Challenge: So what's the measured viability at 28.5 h, 10 µM for this one? O=C(CN1CCCC2(CCN(C(=O)c3ccoc3)C2)C1)Nc1ncccn1 (stereo not drawn)
Response given: 102

Challenge: So what's the measured viability at 28.5 h, 10 µM for this one? OC(CSc1ncnc2sc3c(c12)CCC3)Cn1cccn1 (stereo not drawn)
Response given: 72.3

Challenge: So what's the measured viability at 28.5 h, 10 µM for this one? OCCCNc1nccnc1-c1ccccc1Cl
Response given: 81.6

Challenge: So what's the measured viability at 28.5 h, 10 µM for this one? N#CCCn1cc(C(=O)N2CCOCC2)c(-c2ccccc2)n1
Response given: 86

Challenge: So what's the measured viability at 28.5 h, 10 µM for this one? O=C(CSc1nnc(CCc2ccccc2)n1-c1ccc(Cl)cc1)c1ccccc1
Response given: 88.9

Challenge: So what's the measured viability at 28.5 h, 10 µM for this one? CC(Oc1ccc(F)cc1)C(=O)N1CCCc2c(cnn2C)C1 (stereo not drawn)
Response given: 82.1

Challenge: So what's the measured viability at 28.5 h, 10 µM for this one? COc1cc(F)cc(OC2CCNCC2)c1NC(=O)C1(c2ccccc2)CCCCC1 [CBK050241T]
Response given: 107

Challenge: So what's the measured viability at 28.5 h, 10 µM for this one? COCc1cc(C)nc2c1C(=O)NC(c1ccccc1C(=O)O)N2Cc1ccccc1 (stereo not drawn)
Response given: 92.3

Challenge: So what's the measured viability at 28.5 h, 10 µM for this one? COc1ccc(N(CCC#N)S(=O)(=O)c2cccc3nsnc23)cc1
Response given: 90.7

Challenge: So what's the measured viability at 28.5 h, 10 µM for this one? Cc1ccccc1CNC(=O)c1ccc(C)c([N+](=O)[O-])c1
Response given: 110

Challenge: So what's the measured viability at 28.5 h, 10 µM for this one? O=C1N[C@H]2CCCN(C(=O)c3cc(=O)[nH]c(=O)[nH]3)[C@H]2C/C=C/CCOc2ccccc21
Response given: 107
